# system_tested: T1, human Nectin-4 (human, UniProt Q96NY8 32-349)
# T1 construct: a Gly32-Ser349 FLAG construct is described only under the SPR assay; also called PVRL4
# T1 sequence (looked up): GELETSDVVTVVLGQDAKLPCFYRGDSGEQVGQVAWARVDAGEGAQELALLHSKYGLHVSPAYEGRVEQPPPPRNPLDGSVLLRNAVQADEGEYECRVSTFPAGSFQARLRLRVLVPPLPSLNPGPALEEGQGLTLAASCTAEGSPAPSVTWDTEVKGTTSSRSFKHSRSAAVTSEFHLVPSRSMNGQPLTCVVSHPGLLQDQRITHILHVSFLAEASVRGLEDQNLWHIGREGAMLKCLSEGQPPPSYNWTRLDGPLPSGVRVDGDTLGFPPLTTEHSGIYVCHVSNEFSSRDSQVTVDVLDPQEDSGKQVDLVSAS
# assay_name: FP competition, tracer SEQ ID NO 217
*1 amine or outer side, *2 acyl side, *3 side chain or, on linkers, in order; H or OH if unused. Bridges are numbered along the chain shown (N, C = ends). Where no end group is shown, it is not given here. [ ]: non-standard residue; d: D form. TATA = O=C(CC[*:1])N1CN(C(=O)CC[*:2])CN(C(=O)CC[*:3])C1; Ala(cPr) = N[C@@H](CC1CC1)C(=O)O; NMeT = CN[C@H](C(=O)O)[C@@H](C)O; hArg = N=C(N)NCCCC[C@H](N)C(=O)O
binders and their reported Ki
Express it in nM; write the number only.

Worked cases, answers included:
{"binder": "Ac-CPF[dD]CM[hArg]NWSTP[Ala(cPr)]WC (linker 1-5-15 via TATA) [BCY7912]", "Ki / nM": 9}
{"binder": "MDTCPFGCMEDWSWPIWCA (linker 4-8-18 via TATA) [BCY3391]", "Ki / nM": 198}

Query block: # query: Ki of entry Ac-CPF[dD]CM[hArg]NWS[NMeT]PIWC (linker 1-5-15 via TATA) [BCY8157]
Result block: 5

Query block: Note, next up: Ac-QKWCAPLSDYWC[dA]RIC (linker 4-12-16 via TATA) [BCY7643]
Result block: 19
